Source listed as patent US10059704B2.

Form field: melting point (one value per entry).
Write the value in °C as a bare number.

{"Molecule": "O=[N+]([O-])c1ccc(-c2cccc(-c3cn([C@H]4CN5CCC4CC5)nn3)c2)cn1", "melting point / °C": 180}
{"Molecule": "Fc1ccc(-c2cn([C@@H]3CN4CCC3CC4)nn2)cc1 [Compound 57]", "melting point / °C": 139}
{"Molecule": "COc1ccc(-c2cn([C@H]3CN4CCC3CC4)nn2)cn1 [Compound 52]", "melting point / °C": 155}

Moving on to another molecule below.
Any idea what melting point was measured for FCc1cccc(-c2ccc(-c3cn([C@H]4CN5CCC4CC5)nn3)s2)c1 ?
144
